The following substances are listed with their measured percent inhibition of Factor 7 mRNA, relative to untreated control cells values.
Tested on: human Factor 7 mRNA
Assay: Dose-dependent antisense inhibition of human Factor 7 in HepB3 cells, electroporation
Format: cell-based
Conditions: 50 μM, approx. 16 hours (Table 15, Example 7)
Strand notation (5' to 3'): a small letter for the sugar, then the base; units joined by * are phosphorothioate-linked, units joined directly phosphodiester-linked; [ ] holds rarer units or linkages, { } end groups; capitals alone tell only the bases. e = 2'-O-(2-methoxyethyl) (MOE); [5mC] = 5-methylcytosine; d = 2'-deoxy (DNA)
Output spec: scalar in %, unitless text.

See these solved cases before continuing.
Substance	Measured On	Reading
422292 (antisense eG*eT*dT*d[5mC]*dT*dG*d[5mC]*dA*dG*dG*dA*dG*d[5mC]*dG*dG*e[5mC]*e[5mC]*eT*eA*eA) [compound 422292]	human Factor 7 mRNA	75
422177 (antisense e[5mC]*e[5mC]*e[5mC]*dG*d[5mC]*d[5mC]*dG*dG*d[5mC]*dT*d[5mC]*dT*dG*d[5mC]*dT*d[5mC]*dA*eT*e[5mC]*e[5mC]) [compound 422177]	human Factor 7 mRNA	31

// switching to the query substance
Data request: What does the data say about its percent inhibition of Factor 7 mRNA, relative to untreated control cells? Entry: 407935 (antisense eA*eT*eG*e[5mC]*eA*dT*dG*dG*dT*dG*dA*dT*dG*d[5mC]*dT*eT*e[5mC]*eT*eG*eA) [compound 407935]
Data returned: 80

###

System: human Factor 7 mRNA
Test: Antisense inhibition of human Factor 7 mRNA in HepB3 cells, 50 nM antisense oligonucleotide, lipofectin
Assay type: cell-based
Conditions: gapmers targeted to nucleobases 4868 to 4899 of SEQ ID NO: 1, Table 8
Strand notation (5' to 3'): a small letter for the sugar, then the base; units joined by * are phosphorothioate-linked, units joined directly phosphodiester-linked; [ ] holds rarer units or linkages, { } end groups; capitals alone tell only the bases. e = 2'-O-(2-methoxyethyl) (MOE); [5mC] = 5-methylcytosine; d = 2'-deoxy (DNA)
Measured Property: % Inhibition of human Factor 7 mRNA levels (%)
Dear colleague, please return just the value in %, with no unit written.

# example entries with known answers
> print(dat)
                                  substance  reading
1  422138 (antisense eT*e[5mC]*eT*eG*e[5mC]*dA*dG*dG*dA*dG*d[5mC]*dG*dG*d[5mC]*d[5mC]*eT*eA*eA*eA*eT) [compound 422138]       70
2  422216 (antisense eA*eG*eT*dT*d[5mC]*dT*dG*d[5mC]*dA*dG*dG*dA*dG*d[5mC]*dG*dG*d[5mC]*e[5mC]*eT*eA) [compound 422216]       68
3  422223 (antisense eG*eA*eG*d[5mC]*d[5mC]*d[5mC]*dG*dA*dG*dT*dT*d[5mC]*dT*dG*d[5mC]*dA*dG*eG*eA*eG) [compound 422223]       48
4  422217 (antisense eG*eA*eG*dT*dT*d[5mC]*dT*dG*d[5mC]*dA*dG*dG*dA*dG*d[5mC]*dG*dG*e[5mC]*e[5mC]*eT) [compound 422217]       75
5  422219 (antisense e[5mC]*e[5mC]*eG*dA*dG*dT*dT*d[5mC]*dT*dG*d[5mC]*dA*dG*dG*dA*dG*d[5mC]*eG*eG*e[5mC]) [compound 422219]       65

Data request: Which % Inhibition of human Factor 7 mRNA levels value belongs to 422141 (antisense eA*eG*eT*eT*e[5mC]*dT*dG*d[5mC]*dA*dG*dG*dA*dG*d[5mC]*dG*eG*e[5mC]*e[5mC]*eT*eA) [compound 422141] ?
Data returned: 64

Data request: Need % Inhibition of human Factor 7 mRNA levels, item 422291 (antisense eT*eT*d[5mC]*dT*dG*d[5mC]*dA*dG*dG*dA*dG*d[5mC]*dG*dG*d[5mC]*e[5mC]*eT*eA*eA*eA) [compound 422291]
Data returned: 53

Data request: What value of % Inhibition of human Factor 7 mRNA levels has been reported for the following substance? 422293 (antisense eA*eG*dT*dT*d[5mC]*dT*dG*d[5mC]*dA*dG*dG*dA*dG*d[5mC]*dG*eG*e[5mC]*e[5mC]*eT*eA) [compound 422293]
Data returned: 69

Data request: Which % Inhibition of human Factor 7 mRNA levels value is on record for 416509 (antisense eA*eG*eG*eA*eG*d[5mC]*d[5mC]*d[5mC]*dG*dA*dG*dT*dT*d[5mC]*dT*eG*e[5mC]*eA*eG*eG) [compound 416509] ?
Data returned: 60

Data request: # lookup: % Inhibition of human Factor 7 mRNA levels of 422299 (antisense eA*eG*d[5mC]*d[5mC]*d[5mC]*dG*dA*dG*dT*dT*d[5mC]*dT*dG*d[5mC]*dA*eG*eG*eA*eG*e[5mC]) [compound 422299]
Data returned: 64

Data request: Quick check: % Inhibition of human Factor 7 mRNA levels of 422140 (antisense eG*eT*eT*e[5mC]*eT*dG*d[5mC]*dA*dG*dG*dA*dG*d[5mC]*dG*dG*e[5mC]*e[5mC]*eT*eA*eA) [compound 422140] ?
Data returned: 74

Data request: Data request, read-out % Inhibition of human Factor 7 mRNA levels, for 422290 (antisense eT*e[5mC]*dT*dG*d[5mC]*dA*dG*dG*dA*dG*d[5mC]*dG*dG*d[5mC]*d[5mC]*eT*eA*eA*eA*eT) [compound 422290]
Data returned: 50

###

Reported values of percent inhibition of Factor 7 mRNA, relative to untreated control cells for individual entries
System: human Factor 7 mRNA
Assay: Dose-dependent antisense inhibition of human Factor 7 in HepB3 cells, electroporation
Assay type: cell-based
Details: 3.125 μM, approx. 16 hours (Table 16, Example 8 confirmation)
Strand notation (5' to 3'): a small letter for the sugar, then the base; units joined by * are phosphorothioate-linked, units joined directly phosphodiester-linked; [ ] holds rarer units or linkages, { } end groups; capitals alone tell only the bases. e = 2'-O-(2-methoxyethyl) (MOE); [5mC] = 5-methylcytosine; d = 2'-deoxy (DNA)
Please reply with the bare figure in % and do not write the unit itself.

Substance	Result Units	Reading
422296 (antisense e[5mC]*e[5mC]*dG*dA*dG*dT*dT*d[5mC]*dT*dG*d[5mC]*dA*dG*dG*dA*eG*e[5mC]*eG*eG*e[5mC]) [compound 422296]	%	47

Data request: Name the reported percent inhibition of Factor 7 mRNA, relative to untreated control cells value associated with the substance 407935 (antisense eA*eT*eG*e[5mC]*eA*dT*dG*dG*dT*dG*dA*dT*dG*d[5mC]*dT*eT*e[5mC]*eT*eG*eA) [compound 407935]
Data returned: 63

Data request: Which percent inhibition of Factor 7 mRNA, relative to untreated control cells is listed for 422183 (antisense eG*e[5mC]*eG*d[5mC]*d[5mC]*dA*d[5mC]*d[5mC]*d[5mC]*dG*d[5mC]*d[5mC]*dG*dG*d[5mC]*dT*d[5mC]*eT*eG*e[5mC]) [compound 422183] ?
Data returned: 2

Data request: For 422142 (antisense eG*eA*eG*eT*eT*d[5mC]*dT*dG*d[5mC]*dA*dG*dG*dA*dG*d[5mC]*eG*eG*e[5mC]*e[5mC]*eT) [compound 422142] , what is its reported percent inhibition of Factor 7 mRNA, relative to untreated control cells?
Data returned: 34

Data request: Item under review: 407939 (antisense eT*eG*e[5mC]*eA*eG*d[5mC]*d[5mC]*d[5mC]*dG*dG*d[5mC]*dA*d[5mC]*d[5mC]*d[5mC]*eA*eG*e[5mC]*eG*eA) [compound 407939] . Reported percent inhibition of Factor 7 mRNA, relative to untreated control cells?
Data returned: 35

###

System: human Factor 7 mRNA
Test: Antisense inhibition of human Factor 7 mRNA in HepB3 cells, 50 nM antisense oligonucleotide, lipofectin
Assay type: cell-based
Conditions: Table 1, 50 nM, lipofectin, approximately 24 hours, relative to untreated control cells
Strand notation (5' to 3'): a small letter for the sugar, then the base; units joined by * are phosphorothioate-linked, units joined directly phosphodiester-linked; [ ] holds rarer units or linkages, { } end groups; capitals alone tell only the bases. e = 2'-O-(2-methoxyethyl) (MOE); [5mC] = 5-methylcytosine; d = 2'-deoxy (DNA)
Recorded % Inhibition values for a group of substances are listed next.
Numeric only. Scale: %

Substance	Measured On	Reading
407594 (antisense e[5mC]*e[5mC]*eT*eG*e[5mC]*dA*dG*d[5mC]*d[5mC]*dA*dG*dG*d[5mC]*dA*dG*e[5mC]*e[5mC]*e[5mC]*eT*eG) [compound 407594]	human Factor 7 mRNA	87
407603 (antisense eT*eA*eA*eG*eA*dA*dA*dT*d[5mC]*d[5mC]*dA*dG*dA*dA*d[5mC]*eA*eG*e[5mC]*eT*eT) [compound 407603]	human Factor 7 mRNA	54

We now examine a further substance.
Data request: Would you mind telling me what % Inhibition value was observed for 407641 (antisense e[5mC]*e[5mC]*eT*eG*eA*dG*dG*d[5mC]*d[5mC]*dA*dG*d[5mC]*dA*dG*dA*eT*e[5mC]*eA*e[5mC]*eG) [compound 407641] ?
Data returned: 94
